Sourced from ChEMBL document CHEMBL1153632

method_summary: Inhibition of HCV isolate HC-J4 NS5B deltaC21 polymerase
Design: species or system Hepatitis C virus isolate HC-J4
pIC50: −log10 of the molar value.
Param threshold (7) applies to pIC50; output True when value >= threshold, False when value < threshold.

These solved cases illustrate the format of a correct answer.
* CC(C)CCc1c2c(c(O)c3ccccc13)C1=NS(=O)(=O)c3cc(NS(C)(=O)=O)ccc3N1CO2 | False
* COc1c(C2=NS(=O)(=O)c3cc(NS(C)(=O)=O)ccc3N2)c(O)c(CCC(C)C)c2ccccc12 | True
* CC(C)CCc1c(O)c2c(c3ccccc13)OCN1C2=NS(=O)(=O)c2cc(NS(C)(=O)=O)ccc21 | False
* COc1c(C2=NS(=O)(=O)c3ccccc3N2)cc(CCC(C)C)c2ccccc12 | False
* CC(C)CCc1cc(C2=NS(=O)(=O)c3ccccc3N2)c(O)c2ccccc12 | False

Problem: // inclusive: pIC50 at least 7? input: CC(C)CCc1c(F)c(C2=NS(=O)(=O)c3cc(NS(C)(=O)=O)ccc3N2)c(O)c2ccccc12
Solution: True

Problem: Could you tell me if the measured pIC50 of CC(C)CC[C@@]1(C)C(=O)C(C2=NS(=O)(=O)c3cc(NS(C)(=O)=O)ccc3N2)=C(O)c2ccccc21 reaches 7 or more?
Solution: True

Problem: Tell me whether pIC50 is at least 7 here: COc1c(C2=NS(=O)(=O)c3cc(NS(C)(=O)=O)ccc3N2)c(O)c2ccccc2c1CCC(C)C
Solution: True

---

# CC50 per record follows
method_summary: Cytotoxicity against human HuH7 cells
Format: cell-based, Huh-7
Your answer is read as µM, so omit the unit and give the number.

In the examples that follow, each entry is paired with its recorded CC50.
• COc1c(C2=NS(=O)(=O)c3ccccc3N2)cc(CCC(C)C)c2ccccc12 = 13
• COc1c(C2=NS(=O)(=O)c3cc(NS(C)(=O)=O)ccc3N2)cc(CCC(C)C)c2ccccc12 = 51
• COc1c(C2=NS(=O)(=O)c3cc(NS(C)(=O)=O)ccc3N2)c(OC)c2ccccc2c1CCC(C)C = 40
• CC(C)CCc1c(F)c(C2=NS(=O)(=O)c3ccccc3N2)c(O)c2ccccc12 = 12

Next, consider the following compound.
Consider COc1c(C2=NS(=O)(=O)c3cc(NS(C)(=O)=O)ccc3N2)c(O)c(CCC(C)C)c2ccccc12 . Its measured CC50 is 110

---

method_summary: Inhibition of HCV 1a NS5B polymerase
Parameters: species or system Hepatitis C virus subtype 1a
measured_property: pIC50
Just the number, please; pIC50 means minus log10 of the concentration in mol/L.

Consider CC(C)CC[C@@]1(C)C(=O)C(C2=NS(=O)(=O)c3cc(NS(C)(=O)=O)ccc3N2)=C(O)c2ccccc21 . Its measured pIC50 is 8.90

---

CC50 listing for selected compounds.
method_summary: Cytotoxicity against human HuH7 cells
Type: cell-based, Huh-7

Below, 6 compounds whose answers are already recorded.
* COc1c(C2=NS(=O)(=O)c3cc(NS(C)(=O)=O)ccc3N2)c(O)c2ccccc2c1CCC(C)C | 120 µM
* CC(C)CCc1c(O)c2c(c3ccccc13)OCN1C2=Nc2ccc(NS(C)(=O)=O)cc2S1(=O)=O | 35 µM
* CC(C)CCC1(O)C(=O)C(C2=NS(=O)(=O)c3cc(NS(C)(=O)=O)ccc3N2)=C(O)c2ccccc21 (stereo not drawn) | > 100 µM
* CC(C)CCc1c2c(c(O)c3ccccc13)C1=Nc3ccc(NS(C)(=O)=O)cc3S(=O)(=O)N1CO2 | 33 µM
* CC(C)CCc1c(O)c2c(c3ccccc13)OCN1C2=NS(=O)(=O)c2cc(NS(C)(=O)=O)ccc21 | > 100 µM
* CC(C)CCc1cc(C2=NS(=O)(=O)c3ccccc3N2)c(O)c2ccccc12 | 37 µM

CC50 measured on CC(C)CCc1c2c(c(O)c3ccccc13)C1=NS(=O)(=O)c3cc(NS(C)(=O)=O)ccc3N1CO2 = > 100 µM

Kindly note the recorded CC50 for CC(C)CCc1c(F)c(C2=NS(=O)(=O)c3cc(NS(C)(=O)=O)ccc3N2)c(O)c2ccccc12 , which is > 100 µM
